Biological target: MAO-A (Homo sapiens, UniProt P21397)
Sequence (P21397 whole entry): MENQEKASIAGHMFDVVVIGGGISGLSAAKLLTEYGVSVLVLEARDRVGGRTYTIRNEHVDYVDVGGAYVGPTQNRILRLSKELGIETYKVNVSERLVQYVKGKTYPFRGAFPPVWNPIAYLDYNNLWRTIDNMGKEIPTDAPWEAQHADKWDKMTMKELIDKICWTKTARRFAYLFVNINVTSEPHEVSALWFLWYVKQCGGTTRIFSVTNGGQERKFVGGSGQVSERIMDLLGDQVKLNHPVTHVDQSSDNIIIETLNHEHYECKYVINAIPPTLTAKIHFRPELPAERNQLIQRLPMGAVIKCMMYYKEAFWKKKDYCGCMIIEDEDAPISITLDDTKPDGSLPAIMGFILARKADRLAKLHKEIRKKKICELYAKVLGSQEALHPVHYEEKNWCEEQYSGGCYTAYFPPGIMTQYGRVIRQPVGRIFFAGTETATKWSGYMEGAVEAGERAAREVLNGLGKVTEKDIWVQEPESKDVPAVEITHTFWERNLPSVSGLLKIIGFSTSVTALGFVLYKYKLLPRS
Assay: Inhibition of MAO-A (unknown origin) at 10 uM relative to control
measuredQuantity: inhibition at 10 µM (%)
Field: numeric (%). Do not append units.

Example entries begin here.
COc1ccc(OC)c(-n2cc(CN[C@@H]3C[C@H]3c3ccccc3)nn2)c1 ... 97
FC(F)(F)c1ccc(-n2cc(CN[C@@H]3C[C@H]3c3ccccc3)nn2)cc1 ... 101
COc1ccc(OC)c(-n2cc(CN[C@@H]3C[C@H]3c3ccc(F)c(F)c3)nn2)c1 ... 89
COc1ccccc1-n1cc(CN[C@@H]2C[C@H]2c2ccccc2)nn1 ... 91
COc1cccc(-n2cc(CN[C@@H]3C[C@H]3c3ccccc3)nn2)c1 ... 93
Fc1ccc([C@@H]2C[C@H]2NCc2cn(-c3cc(C(F)(F)F)cc(C(F)(F)F)c3)nn2)cc1F ... 91
COc1cccc(-n2cc(CN[C@@H]3C[C@H]3c3ccc(F)c(F)c3)nn2)c1 ... 102
COc1cc(OC)cc(-n2cc(CN[C@@H]3C[C@H]3c3ccccc3)nn2)c1 ... 101
COc1ccc(-n2cc(CN[C@@H]3C[C@H]3c3ccc(F)c(F)c3)nn2)cc1 ... 100
Fc1ccc([C@@H]2C[C@H]2NCc2cn(-c3ccc(C(F)(F)F)cc3)nn2)cc1F ... 101

GET /value?item= COc1cc(OC)cc(-n2cc(CN[C@@H]3C[C@H]3c3ccc(F)c(F)c3)nn2)c1 &field=inhibition at 10 µM returns 93

GET /value?item= FC(F)(F)c1cc(-n2cc(CN[C@@H]3C[C@H]3c3ccccc3)nn2)cc(C(F)(F)F)c1 &field=inhibition at 10 µM returns 92

GET /value?item= c1ccc([C@@H]2C[C@H]2NCc2cn(-c3ccccc3)nn2)cc1 &field=inhibition at 10 µM returns 102

GET /value?item= FC(F)(F)c1cccc(-n2cc(CN[C@@H]3C[C@H]3c3ccccc3)nn2)c1 &field=inhibition at 10 µM returns 101

GET /value?item= COc1ccccc1-n1cc(CN[C@@H]2C[C@H]2c2ccc(F)c(F)c2)nn1 &field=inhibition at 10 µM returns 90

GET /value?item= COc1ccc(-n2cc(CN[C@@H]3C[C@H]3c3ccccc3)nn2)cc1 &field=inhibition at 10 µM returns 99

GET /value?item= Fc1ccc([C@@H]2C[C@H]2NCc2cn(-c3cccc(C(F)(F)F)c3)nn2)cc1F &field=inhibition at 10 µM returns 90
